- tested-target: UniProtKB Q8WTQ7
- Sequence (Q8WTQ7 whole entry, looked up): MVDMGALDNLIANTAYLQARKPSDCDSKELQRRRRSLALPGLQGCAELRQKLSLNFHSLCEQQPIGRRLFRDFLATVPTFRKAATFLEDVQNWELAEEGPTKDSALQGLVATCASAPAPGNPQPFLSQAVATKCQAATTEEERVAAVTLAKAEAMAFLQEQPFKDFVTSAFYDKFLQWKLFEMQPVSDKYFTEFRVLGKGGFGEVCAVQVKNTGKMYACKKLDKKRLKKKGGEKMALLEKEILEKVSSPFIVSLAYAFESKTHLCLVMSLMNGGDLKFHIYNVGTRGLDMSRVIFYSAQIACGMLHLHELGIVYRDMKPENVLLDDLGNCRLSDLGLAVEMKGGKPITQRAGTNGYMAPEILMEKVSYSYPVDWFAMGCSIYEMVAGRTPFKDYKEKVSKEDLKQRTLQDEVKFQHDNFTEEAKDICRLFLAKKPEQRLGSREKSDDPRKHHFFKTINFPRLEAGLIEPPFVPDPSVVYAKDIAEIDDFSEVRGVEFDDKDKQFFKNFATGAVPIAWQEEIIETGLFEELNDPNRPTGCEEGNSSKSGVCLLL
- assay-remarks: radiometric filter-binding kinase assay, Kinase HotSpot
- particulars: compound 0.5 µM; ATP 10 µM

smiles-entry	tested-target	residual activity
O=c1cc(N2CCOCC2)oc2c(-c3ccccc3)cccc12	UniProtKB Q8WTQ7	112%
N/C(=N\N=C/c1ccc(-c2cccc([N+](=O)[O-])c2)o1)N[N+](=O)[O-]	UniProtKB Q8WTQ7	97%
O=C(c1ccccc1)c1ccc(N2CCOCC2)cc1O	UniProtKB Q8WTQ7	99.6%
COc1cc2c(N3CCN(C(=O)Nc4ccc(OC(C)C)cc4)CC3)ncnc2cc1OCCCN1CCCCC1	UniProtKB Q8WTQ7	104%
O=C1NC(=O)c2c1c1c3ccccc3[nH]c1c1[nH]c3cc(Br)ccc3c21	UniProtKB Q8WTQ7	98.2%
Cc1cc(Nc2nc(-c3ccccc3)nc3ccccc23)n[nH]1	UniProtKB Q8WTQ7	79.2%
COc1cccc(-c2cc(=O)c3ccccc3o2)c1N	UniProtKB Q8WTQ7	103%
CCCCc1c(-c2ccc(O)cc2)[nH]c2nccnc12	UniProtKB Q8WTQ7	82.4%
Cn1cc(/C=C2\C(=O)Nc3ccc(S(N)(=O)=O)cc32)c2ccccc21	UniProtKB Q8WTQ7	20.9%
N#Cc1c(NC(=O)c2cccc3ccccc23)sc2c1CCCC2	UniProtKB Q8WTQ7	116%
